For each of the compounds below, state its IC50.
Target: UniProtKB Q9UM07
Sequence (Q9UM07 whole entry): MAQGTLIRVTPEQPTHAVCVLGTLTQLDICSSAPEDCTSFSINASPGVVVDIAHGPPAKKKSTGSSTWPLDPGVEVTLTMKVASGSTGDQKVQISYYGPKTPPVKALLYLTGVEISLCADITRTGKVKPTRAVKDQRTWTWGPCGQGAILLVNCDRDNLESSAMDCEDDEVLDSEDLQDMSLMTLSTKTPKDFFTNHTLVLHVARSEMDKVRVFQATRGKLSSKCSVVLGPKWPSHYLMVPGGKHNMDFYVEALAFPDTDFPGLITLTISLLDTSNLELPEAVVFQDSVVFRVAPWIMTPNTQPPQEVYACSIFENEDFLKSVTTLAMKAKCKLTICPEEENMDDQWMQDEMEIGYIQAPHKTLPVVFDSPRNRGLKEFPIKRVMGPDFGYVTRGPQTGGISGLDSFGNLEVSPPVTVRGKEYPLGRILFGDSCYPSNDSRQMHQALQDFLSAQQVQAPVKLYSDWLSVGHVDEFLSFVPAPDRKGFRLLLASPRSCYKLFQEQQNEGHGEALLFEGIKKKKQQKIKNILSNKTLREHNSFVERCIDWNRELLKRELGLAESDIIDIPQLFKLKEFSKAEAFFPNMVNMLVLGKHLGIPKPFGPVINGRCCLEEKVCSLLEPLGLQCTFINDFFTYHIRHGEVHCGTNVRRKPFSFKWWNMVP
Experiment: PAD4 assay (hPAD4-RFMS, RapidFire mass spectrometry)
Assay type: biochemical
Details: 100 nM hPAD4, 50 μM substrate peptide, 1 mM CaCl2, 65 mins at 37° C.; read-out: hPAD4-RFMS: pIC50 (Average) (converted)

(Q) Identify measured IC50 corresponding to O=C(/C=C/c1cncnc1)c1c(-c2ccccc2)c2cnccc2[nH]c1=O [Compound I-90]
(A) 100 to 100000 µM

(Q) Identify measured IC50 corresponding to COc1ccc(/C=C/C(=O)c2ccc[nH]c2=O)cc1 [Compound I-151]
(A) 100 to 100000 µM

(Q) Identify measured IC50 corresponding to Cn1c(/C=C/C(=O)c2c(-c3ccccc3)c3ccccc3n(C)c2=O)nc2ccccc21 [Compound I-72]
(A) 10 to 100 µM

(Q) Identify measured IC50 corresponding to C#CCOCCOCCOc1ccc(/C=C/C(=O)c2c(-c3ccccc3)c3ccccc3[nH]c2=O)cc1 [Compound I-109]
(A) 100 to 100000 µM

(Q) Identify measured IC50 corresponding to COc1ccc(/C=C/C(=O)c2c(-c3ccccc3)c3ccccc3[nH]c2=O)cc1 [Compound I-139]
(A) < 10 µM

(Q) Identify measured IC50 corresponding to O=C(/C=C/c1cccnc1)c1c(-c2ccccn2)c2ccccc2[nH]c1=O [Compound I-124]
(A) 100 to 100000 µM

(Q) Identify measured IC50 corresponding to O=C(/C=C/c1cncnc1)c1c(-c2cccnc2)c2ccccc2[nH]c1=O [Compound I-95]
(A) 100 to 100000 µM

(Q) Identify measured IC50 corresponding to O=C(/C=C/c1ccccn1)c1c(-c2ccc(F)cc2)c2ccccc2[nH]c1=O [Compound I-108]
(A) 100 to 100000 µM
